study-target: Toxin B (Clostridioides difficile)
Sequence (P18177 whole entry, the tested form may be a part): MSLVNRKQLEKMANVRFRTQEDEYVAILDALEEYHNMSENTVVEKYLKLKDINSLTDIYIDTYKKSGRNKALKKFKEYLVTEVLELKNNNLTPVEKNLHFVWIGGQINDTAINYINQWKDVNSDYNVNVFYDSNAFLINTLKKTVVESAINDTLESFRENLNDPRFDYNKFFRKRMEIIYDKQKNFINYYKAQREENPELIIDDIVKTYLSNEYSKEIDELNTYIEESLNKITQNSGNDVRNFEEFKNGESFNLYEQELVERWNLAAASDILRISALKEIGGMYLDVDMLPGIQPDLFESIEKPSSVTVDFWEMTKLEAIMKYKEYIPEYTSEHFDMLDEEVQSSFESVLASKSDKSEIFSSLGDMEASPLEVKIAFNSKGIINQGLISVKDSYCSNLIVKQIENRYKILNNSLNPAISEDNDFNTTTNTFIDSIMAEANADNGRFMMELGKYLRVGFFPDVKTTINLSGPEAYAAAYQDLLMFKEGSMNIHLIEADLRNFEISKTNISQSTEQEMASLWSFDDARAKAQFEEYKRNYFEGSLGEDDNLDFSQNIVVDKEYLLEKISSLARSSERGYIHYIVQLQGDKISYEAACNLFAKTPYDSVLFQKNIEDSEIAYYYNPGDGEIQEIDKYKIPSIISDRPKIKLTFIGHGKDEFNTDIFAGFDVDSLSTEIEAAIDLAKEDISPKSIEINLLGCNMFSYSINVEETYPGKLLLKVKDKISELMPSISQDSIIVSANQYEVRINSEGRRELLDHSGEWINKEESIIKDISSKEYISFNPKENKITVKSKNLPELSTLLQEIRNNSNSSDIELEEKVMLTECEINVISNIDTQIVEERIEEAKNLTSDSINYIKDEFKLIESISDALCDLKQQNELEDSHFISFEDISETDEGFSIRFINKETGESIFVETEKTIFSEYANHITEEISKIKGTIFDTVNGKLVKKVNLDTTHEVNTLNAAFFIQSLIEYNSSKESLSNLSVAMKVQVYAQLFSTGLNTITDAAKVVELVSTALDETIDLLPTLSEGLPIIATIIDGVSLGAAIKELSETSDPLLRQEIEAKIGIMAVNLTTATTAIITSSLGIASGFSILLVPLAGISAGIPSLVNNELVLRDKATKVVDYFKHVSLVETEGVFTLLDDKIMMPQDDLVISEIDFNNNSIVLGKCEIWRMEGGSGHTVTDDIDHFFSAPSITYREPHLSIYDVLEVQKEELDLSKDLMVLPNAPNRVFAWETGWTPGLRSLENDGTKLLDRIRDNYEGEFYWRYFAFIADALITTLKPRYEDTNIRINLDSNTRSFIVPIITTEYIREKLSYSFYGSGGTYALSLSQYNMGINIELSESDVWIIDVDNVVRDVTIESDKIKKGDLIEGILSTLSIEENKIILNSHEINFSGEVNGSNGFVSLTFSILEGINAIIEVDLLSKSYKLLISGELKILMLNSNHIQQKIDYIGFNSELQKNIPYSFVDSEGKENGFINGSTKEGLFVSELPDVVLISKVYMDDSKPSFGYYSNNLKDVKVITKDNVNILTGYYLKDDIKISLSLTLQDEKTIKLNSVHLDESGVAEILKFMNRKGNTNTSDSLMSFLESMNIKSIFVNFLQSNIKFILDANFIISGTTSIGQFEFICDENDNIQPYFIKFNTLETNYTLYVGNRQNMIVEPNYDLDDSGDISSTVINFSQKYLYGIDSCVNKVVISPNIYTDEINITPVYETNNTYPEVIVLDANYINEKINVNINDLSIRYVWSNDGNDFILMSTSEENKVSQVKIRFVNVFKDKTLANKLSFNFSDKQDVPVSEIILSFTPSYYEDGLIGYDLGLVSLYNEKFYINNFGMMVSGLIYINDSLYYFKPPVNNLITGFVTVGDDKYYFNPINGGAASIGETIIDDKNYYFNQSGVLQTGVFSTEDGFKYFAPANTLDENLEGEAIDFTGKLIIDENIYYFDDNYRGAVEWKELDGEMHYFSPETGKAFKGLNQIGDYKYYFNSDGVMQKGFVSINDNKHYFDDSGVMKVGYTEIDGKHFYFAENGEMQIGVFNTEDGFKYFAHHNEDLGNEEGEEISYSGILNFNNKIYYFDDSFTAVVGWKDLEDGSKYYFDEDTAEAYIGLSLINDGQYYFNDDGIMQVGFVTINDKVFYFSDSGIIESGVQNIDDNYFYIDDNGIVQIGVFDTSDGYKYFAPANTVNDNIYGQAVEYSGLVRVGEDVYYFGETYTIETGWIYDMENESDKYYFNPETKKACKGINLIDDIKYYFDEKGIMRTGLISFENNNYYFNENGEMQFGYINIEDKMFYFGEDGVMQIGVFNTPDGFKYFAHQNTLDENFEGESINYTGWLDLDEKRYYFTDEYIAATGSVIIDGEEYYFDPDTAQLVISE
protocol-details: Inhibition of C-terminal 6-His tagged recombinant Clostridium difficile toxin B catalytic fragment (Met1 to Leu543 residues) assessed as reduction in glucosyltransferase domain UDP-glucose hydrolysis activity using UDP-glucose and ADP Alexa633 tracer incubated fore 3 hrs by fluorescence polarization assay
Recorded measurements of IC50, one per entry
measured-quantity: IC50 (µM)

- sample-smiles: "O=C(Nc1cccnc1)c1ccc(CN2C(=O)c3ccc(Cl)cc3NC(=O)[C@H]2Cc2cccnc2)cc1"
  relational-operator: ">"
  measured-result: 80
- sample-smiles: "O=C(O)c1ccc(CN2C(=O)c3ccc(F)cc3NC(=O)[C@H]2Cc2cccnc2)cc1"
  relational-operator: "="
  measured-result: 8.6
- sample-smiles: "O=C(O)c1ccc(CN2C(=O)c3ccc(Cl)cc3NC(=O)[C@H]2Cc2nccs2)cc1"
  relational-operator: "="
  measured-result: 2.3
- sample-smiles: "O=C(O)c1ccc(CN2C(=O)c3ccc(Cl)cc3NC(=O)[C@H]2Cc2ccccc2)cc1"
  relational-operator: "="
  measured-result: 6.3
- sample-smiles: "COc1cnc(NC(=O)c2ccc(CN3C(=O)c4ccc(Cl)cc4NC(=O)[C@H]3Cc3ccccn3)cc2)nc1"
  relational-operator: "="
  measured-result: 0.007
- sample-smiles: "O=C(O)c1ccc(CN2C(=O)c3ccc(Cl)cc3NC(=O)[C@H]2Cc2cccc(Cl)c2)cc1"
  relational-operator: "="
  measured-result: 1.6
- sample-smiles: "O=C(O)c1ccc(CN2C(=O)c3ccc(Cl)cc3NC(=O)[C@@H]2Cc2ccc(O)cc2)cc1"
  relational-operator: "="
  measured-result: 16
- sample-smiles: "Cc1ccccc1C[C@@H]1C(=O)Nc2cc(Cl)ccc2C(=O)N1Cc1ccc(C(=O)O)cc1"
  relational-operator: "="
  measured-result: 3.9
- sample-smiles: "O=C(O)c1ccc(CN2C(=O)c3ccc(Cl)cc3NC(=O)[C@H]2Cc2cccnc2)cc1"
  relational-operator: "="
  measured-result: 0.77
- sample-smiles: "O=C(O)c1ccc(CN2C(=O)c3cc(Cl)ccc3NC(=O)[C@H]2Cc2cccnc2)cc1"
  relational-operator: ">"
  measured-result: 80
- sample-smiles: "O=C(O)c1ccc(CN2C(=O)c3ccc(Cl)cc3NC(=O)[C@H]2Cc2ccccc2F)cc1"
  relational-operator: "="
  measured-result: 30
- sample-smiles: "O=C(Nc1ccccc1)c1ccc(CN2C(=O)c3ccc(Cl)cc3NC(=O)[C@H]2Cc2cccnc2)cc1"
  relational-operator: "="
  measured-result: 22
- sample-smiles: "CN1C(=O)[C@@H](Cc2cccnc2)N(Cc2ccc(C(=O)O)cc2)C(=O)c2ccc(Cl)cc21"
  relational-operator: ">"
  measured-result: 80
- sample-smiles: "O=C(Nc1nccs1)c1ccc(CN2C(=O)c3ccc(Cl)cc3NC(=O)[C@H]2Cc2cccnc2)cc1"
  relational-operator: "="
  measured-result: 0.042
- sample-smiles: "O=C(Nc1ccncc1)c1ccc(CN2C(=O)c3ccc(Cl)cc3NC(=O)[C@H]2Cc2cccnc2)cc1"
  relational-operator: ">"
  measured-result: 80
- sample-smiles: "Cc1cccc(C[C@@H]2C(=O)Nc3cc(Cl)ccc3C(=O)N2Cc2ccc(C(=O)O)cc2)c1"
  relational-operator: "="
  measured-result: 4.4
- sample-smiles: "O=C(Nc1ncccn1)c1ccc(CN2C(=O)c3ccc(Cl)cc3NC(=O)[C@H]2Cc2cccnc2)cc1"
  relational-operator: "="
  measured-result: 0.018
- sample-smiles: "COc1ccc2c(c1)NC(=O)[C@@H](Cc1cccnc1)N(Cc1ccc(C(=O)O)cc1)C2=O"
  relational-operator: "="
  measured-result: 2.5

---

Recorded measurements of pIC50, one per entry
study-target: Toxin A (Clostridioides difficile, UniProt P16154)
Sequence (P16154 whole entry): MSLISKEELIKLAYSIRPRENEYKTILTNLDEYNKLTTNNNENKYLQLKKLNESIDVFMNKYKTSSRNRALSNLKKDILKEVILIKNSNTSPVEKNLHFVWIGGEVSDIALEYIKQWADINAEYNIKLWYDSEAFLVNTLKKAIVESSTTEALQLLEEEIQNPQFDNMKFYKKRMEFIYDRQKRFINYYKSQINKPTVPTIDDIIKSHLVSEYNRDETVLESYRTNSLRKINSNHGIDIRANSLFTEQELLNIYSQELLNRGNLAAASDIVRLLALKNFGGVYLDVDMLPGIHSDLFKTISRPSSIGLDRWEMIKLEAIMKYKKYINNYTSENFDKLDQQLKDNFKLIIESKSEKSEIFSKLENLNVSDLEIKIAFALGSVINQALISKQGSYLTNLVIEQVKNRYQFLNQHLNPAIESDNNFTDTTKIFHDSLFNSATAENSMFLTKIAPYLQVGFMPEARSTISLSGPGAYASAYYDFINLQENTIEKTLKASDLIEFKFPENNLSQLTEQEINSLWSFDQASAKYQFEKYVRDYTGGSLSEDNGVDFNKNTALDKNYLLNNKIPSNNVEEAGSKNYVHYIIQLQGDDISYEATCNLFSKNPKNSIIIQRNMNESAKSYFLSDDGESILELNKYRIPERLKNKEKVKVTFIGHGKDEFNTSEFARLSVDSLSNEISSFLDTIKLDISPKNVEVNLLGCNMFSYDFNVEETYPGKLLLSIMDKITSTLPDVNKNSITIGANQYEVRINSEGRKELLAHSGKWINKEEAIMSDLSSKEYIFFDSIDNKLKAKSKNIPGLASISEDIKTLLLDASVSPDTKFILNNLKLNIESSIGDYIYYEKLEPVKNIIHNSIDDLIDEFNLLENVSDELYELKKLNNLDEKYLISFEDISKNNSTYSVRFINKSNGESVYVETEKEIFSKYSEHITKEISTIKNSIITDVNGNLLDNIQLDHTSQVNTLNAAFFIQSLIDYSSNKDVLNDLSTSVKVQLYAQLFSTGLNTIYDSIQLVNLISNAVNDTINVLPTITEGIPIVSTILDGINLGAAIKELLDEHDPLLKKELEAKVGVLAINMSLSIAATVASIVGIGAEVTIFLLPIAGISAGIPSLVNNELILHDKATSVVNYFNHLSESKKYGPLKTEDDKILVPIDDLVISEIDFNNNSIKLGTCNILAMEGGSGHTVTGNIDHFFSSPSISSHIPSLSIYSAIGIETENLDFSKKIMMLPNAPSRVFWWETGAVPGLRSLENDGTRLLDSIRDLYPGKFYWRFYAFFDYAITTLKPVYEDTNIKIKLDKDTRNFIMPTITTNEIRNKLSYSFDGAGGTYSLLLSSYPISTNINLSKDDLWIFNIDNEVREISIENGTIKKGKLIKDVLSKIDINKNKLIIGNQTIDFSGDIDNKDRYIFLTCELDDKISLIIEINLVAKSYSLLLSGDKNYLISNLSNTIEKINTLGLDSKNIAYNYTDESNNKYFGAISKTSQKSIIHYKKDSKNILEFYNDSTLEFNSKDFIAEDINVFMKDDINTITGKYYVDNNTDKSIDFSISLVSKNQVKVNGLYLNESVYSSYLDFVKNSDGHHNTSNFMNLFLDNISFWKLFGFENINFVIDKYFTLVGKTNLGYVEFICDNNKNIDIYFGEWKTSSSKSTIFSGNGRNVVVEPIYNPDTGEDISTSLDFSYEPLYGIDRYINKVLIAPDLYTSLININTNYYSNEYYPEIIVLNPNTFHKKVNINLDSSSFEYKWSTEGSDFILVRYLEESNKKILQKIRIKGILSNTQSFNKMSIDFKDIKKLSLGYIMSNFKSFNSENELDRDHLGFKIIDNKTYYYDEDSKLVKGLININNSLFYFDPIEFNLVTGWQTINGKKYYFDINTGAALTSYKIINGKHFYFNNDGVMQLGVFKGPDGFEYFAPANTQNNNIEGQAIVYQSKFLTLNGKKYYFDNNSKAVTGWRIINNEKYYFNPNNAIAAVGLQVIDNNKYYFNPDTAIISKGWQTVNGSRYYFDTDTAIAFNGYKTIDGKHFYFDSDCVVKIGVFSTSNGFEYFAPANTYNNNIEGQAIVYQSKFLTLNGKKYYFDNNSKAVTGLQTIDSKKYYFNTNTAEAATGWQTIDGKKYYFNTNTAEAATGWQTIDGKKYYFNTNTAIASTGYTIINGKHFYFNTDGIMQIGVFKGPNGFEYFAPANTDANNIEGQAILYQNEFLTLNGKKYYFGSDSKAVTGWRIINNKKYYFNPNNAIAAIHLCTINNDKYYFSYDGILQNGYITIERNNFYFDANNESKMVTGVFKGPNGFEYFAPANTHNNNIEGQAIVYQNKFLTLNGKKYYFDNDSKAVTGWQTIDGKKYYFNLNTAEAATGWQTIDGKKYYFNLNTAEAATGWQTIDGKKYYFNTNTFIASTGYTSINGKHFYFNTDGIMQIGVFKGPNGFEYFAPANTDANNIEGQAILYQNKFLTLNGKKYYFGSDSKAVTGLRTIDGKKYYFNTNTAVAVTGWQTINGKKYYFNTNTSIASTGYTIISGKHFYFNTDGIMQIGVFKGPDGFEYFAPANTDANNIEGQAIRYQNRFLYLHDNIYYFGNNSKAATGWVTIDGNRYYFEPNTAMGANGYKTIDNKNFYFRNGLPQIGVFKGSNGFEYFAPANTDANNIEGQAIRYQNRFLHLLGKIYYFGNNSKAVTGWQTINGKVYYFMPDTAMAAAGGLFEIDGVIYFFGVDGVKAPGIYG
protocol-details: Inhibition of Clostridium difficile toxin A […] assessed as reduction in caspase 3/7 activation pre-incubated for 1 hr before TcdA addition by luminescence based assay1
pIC50: −log10 of the molar value.

- sample-smiles: "COc1cnc(NC(=O)c2ccc(CN3C(=O)c4ccc(Cl)cc4NC(=O)[C@H]3Cc3ccccn3)cc2)nc1"
  study-target: "Toxin A (Clostridioides difficile, UniProt P16154)"
  pIC50: 5.59
- sample-smiles: "Cc1ccc(NC(=O)c2ccc(CN3C(=O)c4ccc(Cl)cc4NC(=O)[C@H]3Cc3ccccn3)cc2)nc1"
  study-target: "Toxin A (Clostridioides difficile, UniProt P16154)"
  pIC50: 5.49
- sample-smiles: "COc1ccc(NC(=O)c2ccc(CN3C(=O)c4ccc(Cl)cc4NC(=O)[C@H]3Cc3ccccn3)cc2)nc1"
  study-target: "Toxin A (Clostridioides difficile, UniProt P16154)"
  pIC50: 5.96

---

protocol-details: Cmax in CD1 mouse at 10 mg/kg, po
Type: ADME, organism-based
Set-up: dose 10 mg/kg, route oral
condition-label: in vivo
measured-quantity: Cmax (ng/mL)

- sample-smiles: "COc1cnc(NC(=O)c2ccc(CN3C(=O)c4ccc(Cl)cc4NC(=O)[C@H]3Cc3ccccn3)cc2)nc1"
  measured-quantity: "Cmax"
  unit-spec: "ng/mL"
  measured-result: 27
- sample-smiles: "Cc1ccc(NC(=O)c2ccc(CN3C(=O)c4ccc(Cl)cc4NC(=O)[C@H]3Cc3ccccn3)cc2)nc1"
  measured-quantity: "Cmax"
  unit-spec: "ng/mL"
  measured-result: 2690

---

protocol-details: Stability in human liver microsomes assessed as parent compound remaining level incubated for 15 mins
Format: ADME, microsome
condition-label: read-out: Stability
measured-quantity: remaining at 0.25 h (%)

- sample-smiles: "Cc1cc(NC(=O)c2ccc(CN3C(=O)c4ccc(Cl)cc4NC(=O)[C@H]3Cc3cccnc3)cc2)no1"
  measured-quantity: "remaining at 0.25 h"
  measured-result: 100
- sample-smiles: "O=C(Nc1ccccn1)c1ccc(CN2C(=O)c3ccc(Cl)cc3NC(=O)[C@H]2Cc2cccnc2)cc1"
  measured-quantity: "remaining at 0.25 h"
  measured-result: 97
- sample-smiles: "O=C(Nc1ccccn1)c1ccc(CN2C(=O)c3ccc(Cl)cc3NC(=O)[C@H]2Cc2ccccn2)cc1"
  measured-quantity: "remaining at 0.25 h"
  measured-result: 99
- sample-smiles: "O=C(Nc1ncccn1)c1ccc(CN2C(=O)c3ccc(Cl)cc3NC(=O)[C@H]2Cc2cccnc2)cc1"
  measured-quantity: "remaining at 0.25 h"
  measured-result: 100
- sample-smiles: "O=C(Nc1nccs1)c1ccc(CN2C(=O)c3ccc(Cl)cc3NC(=O)[C@H]2Cc2cccnc2)cc1"
  measured-quantity: "remaining at 0.25 h"
  measured-result: 61
